Test system: Calu-3
Assay: cell viability relative to DMSO; higher = less toxic
Settings: 72 h; 10000 nM
Measured cell viability by item
Units required after the number.

{"querySmiles": "C[C@@H](O)[C@H]1C(=O)N2C(C(=O)O)=C(SCCNC=N)C[C@H]12", "systemTested": "Calu-3", "attributeMeasured": "cell viability", "testValue": "93.4%"}
{"querySmiles": "CS(=O)(=O)Nc1ccc(Cc2noc(-c3ccc4[nH]cc(CCN)c4c3)n2)cc1", "systemTested": "Calu-3", "attributeMeasured": "cell viability", "testValue": "103%"}
{"querySmiles": "CCN(CC)CCOC(=O)C1(C2CCCCC2)CCCCC1", "systemTested": "Calu-3", "attributeMeasured": "cell viability", "testValue": "102%"}
{"querySmiles": "CCN(c1ccccc1)c1cc(=NC)n(C)c(C)n1", "systemTested": "Calu-3", "attributeMeasured": "cell viability", "testValue": "96.9%"}

Let us examine a further case.
Qu. Which cell viability value belongs to `Clc1ccc(N/N=C(\c2ccccc2)c2ccccn2)nc1` ?
Ans. 18.8%
